- Test system: ACHN
- ASSAY_COMMENT: NCI tumour cell line growth inhibition, 48 h
Activity calls are given as the source filed them. Rule as the data show it: active = GI50 up to about 1.1 µM and inactive = higher.
Tick one outcome: active, inactive

Consider the worked cases shown below.
Qu. Any idea what this test logged for `COC(=O)C1=C(C(=O)OC)SC(=C2SCSC3=C2SC(C(=O)OC)=C(C(=O)OC)C32SC3=C(CCCC3)S2)S1` ?
Ans. inactive

Qu. Any idea what this test logged for `O=S1(=O)OCCOS(=O)(=O)C1(F)Br` ?
Ans. inactive

Qu. Any idea what this test logged for `BrC/C=C/C[P+](c1ccccc1)(c1ccccc1)c1ccccc1` ?
Ans. inactive

Qu. Any idea what this test logged for Nc1ncnc2c1nnn2C1C=CC(CP(=O)(O)O)C1 (stereo unspecified) ?
Ans. inactive

Qu. Any idea what this test logged for `Oc1ccc(CNCc2ccccc2)c2cccnc12` ?
Ans. active

Qu. Any idea what this test logged for `O=C1c2c(ccc3c2CCC3)CC12Cc1cc3c(cc1C2)CCC3` ?
Ans. inactive

Qu. Any idea what this test logged for O=C(Nc1ccc([N+](=O)[O-])cc1[N+](=O)[O-])C(=O)C(C(=O)c1ccc(Cl)c(Cl)c1)C1OC(=O)c2ccccc21 (stereo unspecified) ?
Ans. inactive

Qu. Any idea what this test logged for `C[N+]1=c2c3cccc4cccc(c(=O)n2CCC1)c43` ?
Ans. inactive

Further cases:
Qu. Any idea what this test logged for CC(NC1=CC(=O)c2cccnc2C1=O)C(O)c1ccccc1 (stereo unspecified) ?
Ans. inactive

Qu. Any idea what this test logged for `Nn1nnc2ccccc21` ?
Ans. inactive

---

GI50: recorded values
- Tested on: SK-OV-3
- ASSAY_COMMENT: NCI tumour cell line growth inhibition, 48 h
Active and inactive are the calls of the source. Cut-off read from the data, not from the text of the source: active = GI50 up to about 1.1 µM and inactive = higher.

Qu. // fetch GI50; item: NC(=S)N/N=C(/CCN1CCCC1)CC(C1=C(O)C2=CCCCC2OC1=O)c1ccccc1 (stereo unspecified) ; system: SK-OV-3
Ans. > 100 µM (inactive)

Further cases:
Qu. // fetch GI50; item: `Oc1c(Cl)c2nccnc2c2ccccc12` ; system: SK-OV-3
Ans. > 100 µM (inactive)

Qu. // fetch GI50; item: `CCOC(=O)Cn1c(=O)[nH]c(=O)c2c1ncn2Cc1ccccc1` ; system: SK-OV-3
Ans. > 100 µM (inactive)

Qu. // fetch GI50; item: `O=C1NC(=S)NC(=O)C1=Cc1ccc[nH]1` ; system: SK-OV-3
Ans. > 100 µM (inactive)

Qu. // fetch GI50; item: O=[N+]([O-])c1ccc(Cl)c(CNc2ncnc3c2ncn3C2CCCCO2)c1 (stereo unspecified) ; system: SK-OV-3
Ans. 36.5 µM (inactive)

Qu. // fetch GI50; item: C[N+]12c3ccccc3O[B-]1(c1ccccc1)Oc1ccccc12 (stereo unspecified) ; system: SK-OV-3
Ans. 33.7 µM (inactive)

---

- Test system: CAKI-1
- ASSAY_COMMENT: NCI tumour cell line growth inhibition, 48 h
Active and inactive are the calls of the source. Cut-off read from the data, not from the text of the source: active = GI50 up to about 1.1 µM and inactive = higher.
Tick one outcome: active, inactive

Qu. Any idea what this test logged for `COc1ccc(CCCNC(=O)Cc2ccccc2CO)cc1OC` ?
Ans. inactive

Qu. Any idea what this test logged for `CCCN(CCC)C(=O)Cc1c2n(c3ccccc13)Cc1ccccc1-2` ?
Ans. inactive

Qu. Any idea what this test logged for `O=C(Nc1c(Cl)cccc1Cl)c1c(Cl)c(Cl)c(Cl)c(Cl)c1-c1nc2ccccc2[nH]1` ?
Ans. inactive

Further cases:
Qu. Any idea what this test logged for `C=CCN1C(=O)/C(=C/c2ccc(C)cc2)N=C1SC/C=C/C` ?
Ans. inactive

Qu. Any idea what this test logged for COC(=O)CN(CC(=O)NCCNC(=O)OC(C)(C)C)C1CCCCC1N(CC(=O)OC)CC(=O)OC (configuration not stated) ?
Ans. inactive

Qu. Any idea what this test logged for `O=C1c2ccccc2-c2ccc(O)cc21` ?
Ans. inactive

Qu. Any idea what this test logged for CC(CO)(CBr)COC(=O)c1cc(Br)c(N)c(Br)c1 (configuration not stated) ?
Ans. inactive

Qu. Any idea what this test logged for O=C(Nc1ccc([N+](=O)[O-])cc1[N+](=O)[O-])C(=O)C(C(=O)c1ccc(Cl)c(Cl)c1)C1OC(=O)c2ccccc21 (configuration not stated) ?
Ans. inactive

Qu. Any idea what this test logged for `CCN(CC)C(=O)Cn1c2ccccc2[n+]2cc(N)ccc12` ?
Ans. inactive

Qu. Any idea what this test logged for `N=C(N)NS(=O)(=O)c1ccc(NC(=O)c2cccc3cc4ccccc4nc23)cc1` ?
Ans. inactive

Qu. Any idea what this test logged for `Cc1nccn1S(=O)(=O)c1ccc(Cl)cc1` ?
Ans. inactive
